Assay: Solubility of saturated solutions determined by HPLC
Assay type: physicochemical
Details: organic solvent or mixture, thermodynamic from solid; n-Butanol, 50° C.; read-out: Solubility
recorded.metric: solubility (µg/mL)
Just the number in µg/mL, nothing appended.

# input # query: solubility of entry `CN(C)c1nc(Cc2ccc(NC(=O)c3ccc(C(F)(F)F)cc3)cc2)nc(N(C)C)c1CC(=O)O`
# output 2110

====

Experiment: Solubility of saturated solutions determined by HPLC
Assay type: physicochemical
Conditions: saturated solution in chloroform, organic solvent or mixture, thermodynamic from solid; Chloroform, 50° C.; read-out: Solubility
recorded.metric: solubility (µg/mL)
Just the number in µg/mL, nothing appended.

# input # query: solubility of entry `CN(C)c1nc(Cc2ccc(NC(=O)c3ccc(C(F)(F)F)cc3)cc2)nc(N(C)C)c1CC(=O)O`
# output 350
